Values were extracted from patent US11512079B2.

system: Aspergillus fumigatus MYA3626; test: In vitro antifungal assay (Example IX), microdilution broth, MEC; assay type: cell-based; conditions: minimum effective concentration (shortening of hyphae), 35° C., 40-48 h, RPMI1640
Listed here are compounds together with their documented minimal effective concentration.

Nc1ncccc1-c1cc(Cc2ccc(CCSCCOC=O)cc2)no1 [compound 98] ... 0.1 to 1 µg/mL
Nc1ncccc1-c1cc(Cc2ccc(OCc3cncc(F)c3)cc2)no1 [compound 115] ... 0.01 to 0.1 µg/mL
N#CCNCc1ccc(Cc2cc(-c3cccnc3N)on2)cc1 [compound 94] ... > 1 µg/mL
Nc1ncccc1-c1cc(Cc2ccc(Nc3cc(F)ccc3F)nc2)no1 [compound 244] ... 0.1 to 1 µg/mL
Nc1ncccc1-c1cc(Cc2ccc(CNCc3ccn[nH]3)cc2)no1 [compound 93] ... > 1 µg/mL

Okay, now this compound:
Query: Tell me the measured minimal effective concentration of Nc1ncccc1-c1cc(Cc2ccc(OCc3cccc(Cl)c3)nc2)no1 [compound 85] , please.
Result: 0.01 to 0.1 µg/mL
